Data origin, for the record: patent US20220175766A1

# test: Phase 1a multiple ascending dose study (oral solution): plasma pharmacokinetics
# Format: in vivo, human
# condition-notes: human, plasma, oral, 60 mg, Cohort 1, 60 mg once daily; Day 7; Hour 12; read-out: Compound 1 concentration, Conc (SD)

compound: CC(C)(C)OC(=O)N1CCN(Cc2ccn(Cc3ccc(Cl)cc3)c(=O)c2O)CC1 [Compound 1]
concentration at 12 h [ng/mL]: 0

====

# test: Phase 1a multiple ascending dose study (oral solution): plasma pharmacokinetics
# Type: in vivo, human
# condition-notes: human, plasma, oral, 120 mg, Cohort 2, 120 mg; Day 1; Hour 6; read-out: Compound 1 concentration, Conc (SD)
readout-type: concentration at 6 h (ng/mL)

molecular-string: CC(C)(C)OC(=O)N1CCN(Cc2ccn(Cc3ccc(Cl)cc3)c(=O)c2O)CC1
readout-type: concentration at 6 h
experimental-result: 0

====

# test: Phase 1a single ascending dose study (oral solution): plasma pharmacokinetics
# Format: in vivo
# condition-notes: male, human, 60 mg, Cohort 2, 60 mg single oral dose (1.2 mg/mL, 50 mL)
readout-type: Tmax

molecule: CC(C)(C)OC(=O)N1CCN(Cc2ccn(Cc3ccc(Cl)cc3)c(=O)c2O)CC1 [Compound 1]
readout-type: Tmax
experimental-result: 30 min

====

# test: Phase 1a multiple ascending dose study (oral solution): plasma pharmacokinetics
# Type: in vivo, human
# condition-notes: human, plasma, oral, 240 mg, Cohort 3, 240 mg; Day 1; Hour 0.5; read-out: Compound 1 concentration, Conc (SD)
readout-type: concentration at 0.5 h (ng/mL)

molecule: CC(C)(C)OC(=O)N1CCN(Cc2ccn(Cc3ccc(Cl)cc3)c(=O)c2O)CC1 [Compound 1]
experimental-result: 25.7

====

# test: Phase 1a multiple ascending dose study (oral solution): plasma pharmacokinetics
# Format: in vivo, human
# condition-notes: human, plasma, oral, 60 mg, Cohort 5, 60 mg once daily; Day 7; Hour 4; read-out: Compound 1 concentration, Conc (SD)

molecular-string: CC(C)(C)OC(=O)N1CCN(Cc2ccn(Cc3ccc(Cl)cc3)c(=O)c2O)CC1
value-units: ng/mL
concentration at 4 h: 1.62

====

# test: Phase 1a multiple ascending dose study (oral solution): plasma pharmacokinetics
# Assay type: in vivo, human
# condition-notes: human, plasma, oral, 240 mg, Cohort 3, 240 mg once daily; Day 7; read-out: Cmax, mean
readout-type: Cmax

molecular-string: CC(C)(C)OC(=O)N1CCN(Cc2ccn(Cc3ccc(Cl)cc3)c(=O)c2O)CC1
experimental-result: 28.8 ng/mL

====

# test: Phase 1a multiple ascending dose study (oral solution): plasma pharmacokinetics
# Type: in vivo, human
# condition-notes: human, plasma, oral, 240 mg, Cohort 3, 240 mg once daily; Day 7; Hour 8; read-out: Compound 1 concentration, Conc (SD)
# Method: Compound 1 was administered as the HCl-salt (prepared analogously to Example 2.1). The secondary objective was to characterize the multiple dose pharmacokinetic (PK) parameters of Compound 1, after ascending doses. Secondary endpoints included determination of PK parameters in plasma and urine, fecal excretion and assessment of colonic biopsy samples. […]

molecular-string: CC(C)(C)OC(=O)N1CCN(Cc2ccn(Cc3ccc(Cl)cc3)c(=O)c2O)CC1
concentration at 8 h [ng/mL]: 6.44

====

# test: Phase 1a multiple ascending dose study (oral solution): plasma pharmacokinetics
# Type: in vivo, human
# condition-notes: human, plasma, oral, 120 mg, Cohort 4, 120 mg once daily; Day 7; Hour 0.5; read-out: Compound 1 concentration, Conc (SD)
readout-type: concentration at 0.5 h (ng/mL)

molecular-string: CC(C)(C)OC(=O)N1CCN(Cc2ccn(Cc3ccc(Cl)cc3)c(=O)c2O)CC1
experimental-result: 15.6
